Origin of the recorded values: ChEMBL document CHEMBL1135911

- measurement target: Human immunodeficiency virus 1
- assay procedure: Anti-HIV-1 activity in MT-4 cells
readout type: EC50 (µM)

Cc1ncc([N+](=O)[O-])n1CCOC(c1ccccc1)c1ccc(-c2ccccc2)cc1 (stereo not given); 17
Cc1ccc(C(OCCn2c([N+](=O)[O-])cnc2C)c2ccccc2)cc1 (stereo not given); 1.41
Cc1ncc([N+](=O)[O-])n1CCOC(c1ccccc1)c1ccc(F)cc1 (stereo not given); 0.891

P. Cc1ncc([N+](=O)[O-])n1CCOC(c1ccccc1)c1ccc(Cl)cc1 (stereo not given)
Q. Cc1ncc([N+](=O)[O-])n1CCOC(c1ccccc1)c1ccc(C(C)(C)C)cc1 (stereo not given)
Parameter metric = EC50. Return the lower-valued option from P and Q . When you have decided, please share the label of that item.
Q
(Q: 3.98 µM, P: 12 µM)
